# MIC annotations
Tested on: Staphylococcus aureus
Assay: Antibacterial activity against methicillin-resistant Staphylococcus aureus DM 9808R after 24 hrs by two fold dilution assay
Assay type: functional

compound-structure	limit-operator	MIC / µg/mL
CC(C)=CCOc1cc(O)c2c(=O)c3c(O)cc(OCC=C(C)C)cc3oc2c1	>	50
COC(=O)[C@H](CCCCN)NC(=O)COc1cc(OCC=C(C)C)cc2oc3cc(OCC=C(C)C)cc(OCC(=O)N[C@@H](CCCCN)C(=O)OC)c3c(=O)c12	=	12.5
COC(=O)[C@H](CCCNC(=N)N)NC(=O)[C@H](CCCNC(=N)N)NC(=O)COc1cc(OCC=C(C)C)cc2oc3cc(OCC=C(C)C)cc(OCC(=O)N[C@@H](CCCNC(=N)N)C(=O)N[C@@H](CCCNC(=N)N)C(=O)OC)c3c(=O)c12	=	3.13
COC(=O)[C@H](CCCNC(=N)N)NC(=O)COc1cc(OCC(=O)N[C@@H](CCCNC(=N)N)C(=O)OC)c2c(=O)c3c(OCC(=O)N[C@@H](CCCNC(=N)N)C(=O)OC)cc(OCC=C(C)C)cc3oc2c1	=	50

====

System: Staphylococcus aureus
Test: Antibacterial activity against methicillin-resistant Staphylococcus aureus DM 9808R after 24 hrs by two fold dilution assay
Type: functional
readout-type: MIC

compound-structure	readout-type	measured-result
COC(=O)[C@H](CCCNC(=N)N)NC(=O)COc1cc(OCC=C(C)C)cc2oc3cc(OCC=C(C)C)cc(OCC=C(C)C)c3c(=O)c12	MIC	1.56 µg/mL
CC(C)=CCOc1cc(OCC(=O)N[C@@H](CCCNC(=N)N)C(N)=O)c2c(=O)c3c(OCC(=O)N[C@@H](CCCNC(=N)N)C(N)=O)cc(OCC=C(C)C)cc3oc2c1	MIC	6.25 µg/mL
CCCCN(CCCC)CCCNC(=O)COc1cc(OCC=C(C)C)cc2oc3cc(OCC=C(C)C)cc(OCC(=O)NCCCN(CCCC)CCCC)c3c(=O)c12	MIC	3.13 µg/mL
CCCOc1cc(OCC(=O)N[C@@H](CCCNC(=N)N)C(=O)OC)c2c(=O)c3c(OCC(=O)N[C@@H](CCCNC(=N)N)C(=O)OC)cc(OCCC)cc3oc2c1	MIC	12.5 µg/mL
COC(=O)[C@H](CCCNC(=N)N)NC(=O)COc1cc(OC/C=C(\C)CCC=C(C)C)cc2oc3cc(OC/C=C(\C)CCC=C(C)C)cc(OCC(=O)N[C@@H](CCCNC(=N)N)C(=O)OC)c3c(=O)c12	MIC	50 µg/mL
CC(C)=CCOc1cc(OCC(=O)NCCCN(C)C)c2c(=O)c3c(OCC(=O)NCCCN(C)C)cc(OCC=C(C)C)cc3oc2c1	MIC	12.5 µg/mL
COC(=O)[C@H](CCCNC(=N)N)NC(=O)COc1cc(OCC=C(C)C)cc2oc3cc(OCC=C(C)C)cc(OCC(=O)N[C@@H](CCCNC(=N)N)C(=O)OC)c3c(=O)c12	MIC	0.78 µg/mL
O=c1c2c(O)cc(O)cc2oc2cc(O)cc(O)c12	MIC	> 50 µg/mL
COC(=O)[C@H](CCCNC(=N)N)NC(=O)[C@H](CCCNC(=N)N)NC(=O)COc1cc(OC/C=C(\C)CCC=C(C)C)cc2oc3cc(OC/C=C(\C)CCC=C(C)C)cc(OCC(=O)N[C@@H](CCCNC(=N)N)C(=O)N[C@@H](CCCNC(=N)N)C(=O)OC)c3c(=O)c12	MIC	25 µg/mL
CCN(CC)CCCNC(=O)COc1cc(OCC=C(C)C)cc2oc3cc(OCC=C(C)C)cc(OCC(=O)NCCCN(CC)CC)c3c(=O)c12	MIC	12.5 µg/mL
CN[C@H](CC(C)C)C(=O)N[C@H]1C(=O)N[C@@H](CC(N)=O)C(=O)N[C@H]2C(=O)N[C@H]3C(=O)N[C@H](C(=O)N[C@H](C(=O)O)c4cc(O)cc(O)c4-c4cc3ccc4O)[C@H](O)c3ccc(c(Cl)c3)Oc3cc2cc(c3O[C@@H]2O[C@H](CO)[C@@H](O)[C@H](O)[C@H]2O[C@H]2C[C@](C)(N)[C@H](O)[C@H](C)O2)Oc2ccc(cc2Cl)[C@H]1O	MIC	3.13 µg/mL
